# test system: SFRP-1 (Homo sapiens, UniProt Q8N474)
# Sequence (Q8N474 32-314): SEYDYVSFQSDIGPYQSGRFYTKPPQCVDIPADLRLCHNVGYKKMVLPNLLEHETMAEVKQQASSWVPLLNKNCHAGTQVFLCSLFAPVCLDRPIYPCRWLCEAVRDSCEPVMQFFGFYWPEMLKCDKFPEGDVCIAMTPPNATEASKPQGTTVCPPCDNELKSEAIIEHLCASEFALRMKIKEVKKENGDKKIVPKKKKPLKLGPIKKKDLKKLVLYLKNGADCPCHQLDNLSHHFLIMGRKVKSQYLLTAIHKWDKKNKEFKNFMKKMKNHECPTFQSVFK
# run description: Cell-based assay for in vitro measurement of SFRP-1/SARP2 antagonist activity (U2OS cells co-transfected with 16x TCF-tk-Luciferase reporter, Wnt and hSFRP-1);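 also: U2OS cells co-transfected with a TCF-tk luciferase reporter, a Wnt vector, hSFRP-1 or empty vector and CMV-βgal, luciferase luminescence read in cell lysates alongside βgal activity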
# condition parameters: U2OS, read-out: Fold Induction with SFRP-1, U2OS cells, single dose 10 μM, luciferase reporter, fold induction over SFRP-1 control
Assign fold induction at 10 µM to each entry below.
Numbers only.

compound	reported result
CC(C)c1ccc(S(=O)(=O)c2ccccc2)cc1S(=O)(=O)NCC(O)c1cccnc1 (stereo not drawn)	4.1

For every record below, what is its fold induction at 10 µM?
1. N#CCN1CCC(NS(=O)(=O)c2cc(S(=O)(=O)c3ccccc3)ccc2C(F)(F)F)CC1
2. CCOC(=O)NC(=S)N1CCC(NS(=O)(=O)c2cc(S(=O)(=O)c3ccc(F)cc3)ccc2C(C)C)CC1

1. 4.2
2. 3.5
